Just for reference, patent US20240343727A1 is where these values come from.

target: UniProt:Q7Z3E1
Measured metric: IC50

compound="COCC(=O)Nc1ccc2c(c1)N(c1cc(C(F)(F)F)c(=O)[nH]n1)CC(CC(=O)N1CCN(c3ncc(C(F)(F)F)cn3)CC1)O2 (single isomer, unassigned)" result="100 to 1000 nM"

So the reported IC50 for O=C(c1cccc(Oc2n[nH]c(=O)c(C(F)(F)F)c2N2CC3(CCC3)C2)c1)N1CCN(c2ncc(Cl)cn2)CC1 , on UniProt:Q7Z3E1, turned out to be < 100 nM

The reported UniProt:Q7Z3E1 IC50 of O=C(CC1CN(c2cc(C(F)(F)F)c(=O)[nH]n2)c2ccc(Cl)cc2O1)N1CCN(c2ncc(C(F)(F)F)cn2)CC1 (single isomer, unassigned) [Compound 164] is 100 to 1000 nM

Field IC50 (system: UniProt:Q7Z3E1) for entry C[C@H]1CN(c2n[nH]c(=O)c3c(F)cccc23)C[C@@H](CC(=O)N2CCN(c3ncc(C(F)(F)F)cn3)CC2)O1 (stereo in doubt) = < 100 nM

Kindly note: UniProt:Q7Z3E1, N#Cc1cnc(N2CCN(C(=O)CC3CN(c4cc(C(F)(F)F)c(=O)[nH]n4)c4cc(F)ccc4O3)CC2)nc1 (single isomer, unassigned) [Compound 264] , IC50 value reported: < 100 nM

// returns IC50 for O=C(c1cccc(Oc2n[nH]c(=O)c(C(F)(F)F)c2CO)c1)N1CCN(c2ncc(C(F)(F)F)cn2)CC1 with UniProt:Q7Z3E1; value = 100 to 1000 nM

Summary line: N#Cc1ccc(N2CCN(C(=O)c3cncc(Oc4n[nH]c(=O)c(C(F)(F)F)c4N4CC5(C4)CC(F)(F)C5)c3)CC2)nc1 , UniProt:Q7Z3E1, reported IC50 = < 100 nM

IC50 of O=C(c1cncc(Oc2n[nH]c(=O)c(C(F)(F)F)c2N2CC3(CCC3)C2)c1)N1CCN(c2ncc(C(F)(F)F)cn2)CC1 , assay on UniProt:Q7Z3E1, is < 100 nM

====

pIC50: −log10 of the molar value.
// endpoint pIC50 / system PARP7 (Homo sapiens, UniProt Q7Z3E1)

Worked cases, pIC50 given:
compound="O=C(CC1CN(c2n[nH]c(=O)c3c(Cl)cccc23)CCO1)N1CCN(c2ncc(C(F)(F)F)cn2)CC1 (single isomer, unassigned) [Compound 98]" result="> 7.00"
compound="Cc1c(N2C[C@H](CC(=O)N3CCN(c4ncc(C(F)(F)F)cn4)CC3)O[C@@H](C)C2)n[nH]c(=O)c1C(F)(F)F (single isomer, unassigned) [Compound 42]" result="> 7.00"
compound="O=C(c1cncc(Oc2n[nH]c(=O)c(C(F)(F)F)c2N2CC(C3CC3)C2)c1)N1CCN(c2ncc(C(F)(F)F)cn2)CC1 [Compound 278]" result="> 7.00"
compound="O=C(CC1CN(c2n[nH]c(=O)c3ccc(OCC(F)F)cc23)CCO1)N1CCN(c2ncc(C(F)(F)F)cn2)CC1 (single isomer, unassigned) [Compound 211]" result="> 7.00"
compound="Cc1c(Oc2cccc(C(=O)N3CCN(c4ccc(C#N)cn4)CC3)c2)n[nH]c(=O)c1C(F)(F)F [Compound 27]" result="> 7.00"

Value sought: pIC50, system PARP7 (Homo sapiens, UniProt Q7Z3E1), item C[C@@H]1CN(C(=O)c2cncc(Oc3n[nH]c(=O)c(C(F)(F)F)c3N3CC4(C3)CC(F)(F)C4)c2)CCN1c1ncc(Cl)cn1 [Compound 321] . Result: > 7.00
